# Tested on: BDF1 mice, P388 leukemia ip, median survival T/C
# Test: NCI In Vivo Anticancer Drug Screen. Data for tumor model P388 Leukemia (intraperitoneal) in B6D2F1 (BDF1) mice
# Condition summary: endpoint: median survival time; dose: 200.0 mg/kg/injection; schedule: Q01DX009 (ip); vehicle: saline with Tween-80
Toxic doses and inconclusive results are not listed. The calls were made as follows: active = survival T/C of 150% or more; inactive = T/C below 125% in these data.
Outcome codes: active, inactive

Molecule | Assigned category
CC1=C(c2ccccc2)C(c2ccccc2)C(/C=C/c2ccccc2)=NC=C1c1ccccc1 (configuration not stated) | inactive
Clc1ccc(-c2nc(-c3ccccc3)c(-c3ccccc3)o2)cc1 | inactive
CN(C)c1ccc(/C=C/c2ccc3ccccc3[n+]2[O-])cc1 | inactive
Cc1c(Cl)c(Cl)c(Cl)c(Cl)c1Cl | inactive
CCC(CO)NC(=O)/C=C/c1ccccc1Cl (configuration not stated) | inactive
COC(=O)c1cc(O)c(O)c(OC)c1 | inactive
O=C1c2cccnc2C(=O)c2c(O)ccc(O)c21 | inactive
Cc1cc(C)c(NC(=O)N(CCCl)N=O)cc1C | inactive
CS(=O)CC(O)(c1ccccc1)c1cccnc1 (configuration not stated) | inactive
CCSC(CC(C)=O)c1ccc(Cl)c(Cl)c1 (configuration not stated) | inactive
CCCCCCC(=O)/C=C/c1ccc(N(C)C)cc1 | inactive
CC1OC(OC2C(=O)c3c(O)cc(O)cc3OC2c2ccc(O)c(O)c2)C(O)C(O)C1O (configuration not stated) | inactive
O=C(O)CCc1nc(-c2ccccc2)c(-c2ccccc2)o1 | inactive
COc1cc2c(cc1OC)C(CNC(=O)/C=C/c1cc(OC)c(OC)c(OC)c1)C2 (configuration not stated) | inactive
CCO/C=C(\C#N)C(=O)O | inactive
O=C(NC12CC3CC(CC(C3)C1)C2)Oc1ccccc1 | inactive
O=C(/C=C/c1ccc(OCc2ccccc2)cc1)c1ccc(Br)cc1 | inactive
Cn1c([N+](=O)[O-])cnc1/C=N/N1CCN(/N=C/c2ncc([N+](=O)[O-])n2C)CC1 | inactive
CN(C)CCCNc1cc(/C=C/c2cccc3ccccc23)nc2ccccc12 | inactive
COCCCNC1=C(C#N)C(=O)NC2(CCCC2)S1 | inactive
O=C(NC(=O)c1c(F)cccc1F)Nc1ncc(Cl)cc1Cl | inactive
Cc1cccc(NC2=C(C#N)C(=O)NC3(CCCC3)S2)c1 | inactive
CC(C)OC(=O)c1ccc(C(C)C)cc1 | inactive
COC(OC)c1[nH]c(=S)[nH]c(=O)c1Cc1cccc2ccccc12 | inactive
O=C(NCc1ccco1)C(=O)NCc1ccco1 | inactive
S=C(S)Nc1cccc2ccccc12 | inactive
CC(C)CC(NC(=O)CN)C(=O)O (configuration not stated) | inactive
[O-]c1c[n+](-c2ccccc2)no1 | inactive
CCCC(C#N)(CCCl)c1ccccc1 (configuration not stated) | inactive
Cc1cc(Cl)ccc1NC(=O)N1c2ccccc2SC12CCCC2 | inactive
CN(Cc1cnc2nc(N)nc(N)c2n1)c1c(Cl)cc(C(=O)NC(CCC(=O)O)C(=O)O)cc1Br (configuration not stated) | active
CC(=O)CSc1ncnc2nc[nH]c12 | inactive
Nc1nc(N)c(N=O)c(Nc2ccc(Br)cc2)n1 | inactive
Nc1ccccc1-n1nc2ccc3ccccc3c2n1 | inactive
c1nc(SC2CCCC2)c2[nH]cnc2n1 | inactive
Clc1nc(Cl)c(Nc2ccn[nH]2)nc1Cl | inactive
OC(Cc1ccnc2ccccc12)C(Cl)(Cl)Cl (configuration not stated) | inactive
